// values below are reported EC50
- tested-target: TRα LBD (Homo sapiens)
- Sequence (P10827 163-410 isoform P10827-2 limits assumed, other chains not shown): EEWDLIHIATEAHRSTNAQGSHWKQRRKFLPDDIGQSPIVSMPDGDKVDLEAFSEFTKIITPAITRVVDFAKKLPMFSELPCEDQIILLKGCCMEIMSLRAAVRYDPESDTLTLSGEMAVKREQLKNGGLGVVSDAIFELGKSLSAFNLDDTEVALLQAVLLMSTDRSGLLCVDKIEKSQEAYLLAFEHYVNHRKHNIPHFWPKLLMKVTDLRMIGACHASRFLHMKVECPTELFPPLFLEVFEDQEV
- test-description: In vitro thyroid hormone receptor binding assay (TR-FRET coactivator assay), TRα LBD
- particulars: Biotin-SRC2-2, 1 hour at room temperature
Form entry: value (µM) — number only.

Use these answered entries as a reference point.
• Cc1cc(OCc2cc(O)no2)cc(C)c1Cc1ccc(O)c(C(C)C)c1 = 0.00737
• CC(C)c1cncn(Cc2c(Cl)cc(-n3nc(C#N)c(=O)[nH]c3=O)cc2Cl)c1=O = 5.23
• CC(C)c1nc(Oc2c(Cl)cc(-n3nc(C#N)c(=O)[nH]c3=O)cc2Cl)c[nH]c1=O = 6.41

Incoming: Sample N#Cc1nn(-c2cc(Cl)c(Oc3ccc4[nH]c(=O)oc4c3)c(Cl)c2)c(=O)[nH]c1=O — what was its EC50?
Outgoing: 8.37
